# System: luciferase gene (pGL3) stably expressed by A549-GL3Luc cells
# method: Luciferase gene (pGL3) silencing by GL3Luc siRNA transfection of A549-GL3Luc cells
# Format: cell-based, human
# conditionSummary: amphiphilic cationic molecule/DOPE 1 mM/2 mM in 10% ethanol and water; siRNA concentration 10 nM; 48 h; versus control GL2-Luc siRNA
The entries below come with measured Silencing (%) +/− SD values attached.

Use the examples below as a reference point.
CCCCCCCCCCCCCCCCCCC(CCCCCCCCCCCCCCCCC)C[n+]1cn(C)c2ccccc21.[Cl-] (stereo not shown) [HEMB]    88 +/− 4%
CCCCCCCCCCCCCCCCCCC(CCCCCCCCCCCCCCCCC)C[n+]1ccsc1.[Cl-] (stereo not shown) [HET]    23 +/− 2%
CCCCCCCCCCCCCCCCC(CCCCCCCCCCCCCCCC)CCC[n+]1ccn(C)c1.[Cl-] [HEMI]    67 +/− 19%
CCCCCCCCCCCCCCCCCCC(CCCC(CCCCCCCCCCCCCC)CCCCCCCCCCCCCC)[n+]1ccn(C)c1.[Cl-] (stereo not shown) [BIA]    75 +/− 14%
CCCCCCCCCCCCCCCCCCC(CCCCCCCCCCCCCCCCC)C[n+]1ccn(C)c1.[Cl-] (stereo not shown) [HEIC]    83 +/− 2%

**Query** Form: Entry = CCCCCCCCCCCCCCCCCCC(CCCCCCCCCCCCCCCCCC)n1cc[n+](C)c1.[Cl-] [MONI] | System = luciferase gene (pGL3) stably expressed by A549-GL3Luc cells | Silencing (%) +/− SD = ____
**Result** 95 +/− 3%

**Query** Form: Entry = CCCCCCCCCCCCCCCCCCC(CCCCCCCCCCCCCCCCCC)n1c[n+](C)c2ccccc21.[Cl-] [MONBI] | System = luciferase gene (pGL3) stably expressed by A549-GL3Luc cells | Silencing (%) +/− SD = ____
**Result** 94 +/− 10%

---

# Test system: luciferase gene (pGL3) stably expressed by A549-GL3Luc cells
# method: Luciferase gene (pGL3) silencing by GL3Luc siRNA transfection of A549-GL3Luc cells
# Type: cell-based, human
# conditionSummary: amphiphilic cationic molecule/DOPE 1 mM/2 mM in 10% ethanol and water; siRNA concentration 1 nM; 48 h; versus control GL2-Luc siRNA
The entries below come with measured Silencing (%) +/− SD values attached.

Use the examples below as a reference point.
CCCCCCCCCCCCCCCCCCC(CCCC(CCCCCCCCCCCCCC)CCCCCCCCCCCCCC)[n+]1ccn(C)c1.[Cl-] (stereo not shown)    59 +/− 6%
CCCCCCCCCCCCCCCCC(CCCCCCCCCCCCCCCC)CCC[n+]1ccn(C)c1.[Cl-]    57 +/− 8%

**Query** I have this compound here, CCCCCCCCCCCCCCCCCCC(CCCCCCCCCCCCCCCCC)C[n+]1cn(C)c2ccccc21.[Cl-] (stereo not shown) , and I need its recorded Silencing (%) +/− SD.
**Result** 76 +/− 9%

**Query** I have this compound here, CCCCCCCCCCCCCCCCCCC(CCCCCCCCCCCCCCCCC)C[n+]1ccn(C)c1.[Cl-] (stereo not shown) , and I need its recorded Silencing (%) +/− SD.
**Result** 73 +/− 6%

**Query** I have this compound here, CCCCCCCCCCCCCCCCCCC(CCCCCCCCCCCCCCCCCC)n1c[n+](C)c2ccccc21.[Cl-] , and I need its recorded Silencing (%) +/− SD.
**Result** 93 +/− 11%

**Query** I have this compound here, CCCCCCCCCCCCCCCCCCC(CCCCCCCCCCCCCCCCC)C[n+]1ccsc1.[Cl-] (stereo not shown) , and I need its recorded Silencing (%) +/− SD.
**Result** 22 +/− 1%

**Query** I have this compound here, CCCCCCCCCCCCCCCCCCC(CCCCCCCCCCCCCCCCCC)n1cc[n+](C)c1.[Cl-] , and I need its recorded Silencing (%) +/− SD.
**Result** 92 +/− 4%
